- target_entity: Proteasome subunit beta (Trypanosoma cruzi) (UniProt O96673)
- Sequence (O96673 as listed by the source): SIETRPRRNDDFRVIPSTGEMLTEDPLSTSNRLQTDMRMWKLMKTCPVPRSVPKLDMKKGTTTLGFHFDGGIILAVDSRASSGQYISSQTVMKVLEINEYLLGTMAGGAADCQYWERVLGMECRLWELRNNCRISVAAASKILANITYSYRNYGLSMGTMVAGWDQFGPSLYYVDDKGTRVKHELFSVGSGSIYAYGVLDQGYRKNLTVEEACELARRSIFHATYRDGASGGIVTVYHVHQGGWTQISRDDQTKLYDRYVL
- protocol_summary: Trypanosoma cruzi proteasome chymotrypsin-like activity (TcProtChymo) assay.
- Assay type: functional
- Set-up: scale not given: in the data most compounds retested in dose-response had high values
- applied_conditions: 9.37 µM
measured_attribute: Percent Effect (%)
Write the number in % without appending the unit.

Q: Notebook: pull reported Percent Effect for Proteasome subunit beta (Trypanosoma cruzi) (UniProt O96673), entry COC(=O)C1CCN(C(=O)CN2CCN(c3cccc(C)c3)CC2)CC1
A: 8.65

Q: Notebook: pull reported Percent Effect for Proteasome subunit beta (Trypanosoma cruzi) (UniProt O96673), entry Cc1ccc2c(c1)CN(C(=O)c1ccccc1F)C(CN(C)C)CO2 (centres undefined)
A: 11.7

Q: Notebook: pull reported Percent Effect for Proteasome subunit beta (Trypanosoma cruzi) (UniProt O96673), entry Cc1ccc(CN2CCCC3(CCN(S(=O)(=O)N(C)C)C3)C2)o1 (centres undefined)
A: 13.7

Q: Notebook: pull reported Percent Effect for Proteasome subunit beta (Trypanosoma cruzi) (UniProt O96673), entry COCC(=O)N1CCC2(CCN(Cc3ccccn3)CC2)CC1
A: 12.3

Q: Notebook: pull reported Percent Effect for Proteasome subunit beta (Trypanosoma cruzi) (UniProt O96673), entry Cc1noc(C)c1CNC(=O)N1CCN(Cc2cscn2)CC1
A: 3.51

Q: Notebook: pull reported Percent Effect for Proteasome subunit beta (Trypanosoma cruzi) (UniProt O96673), entry CCNC(=O)N1CCCC(c2noc(CC)n2)C1 (centres undefined)
A: 5.09

Q: Notebook: pull reported Percent Effect for Proteasome subunit beta (Trypanosoma cruzi) (UniProt O96673), entry COCCO[C@H]1CCN(C(=O)c2ccno2)[C@H]1Cc1cnn(C)c1
A: 2.79

Q: Notebook: pull reported Percent Effect for Proteasome subunit beta (Trypanosoma cruzi) (UniProt O96673), entry CNS(=O)(=O)c1ccc(C(=O)N2CCCC(n3cccn3)C2)cc1 (centres undefined)
A: 2.17

Q: Notebook: pull reported Percent Effect for Proteasome subunit beta (Trypanosoma cruzi) (UniProt O96673), entry Cc1c[nH]c(CN(C)C(=O)C2CC(=O)N(Cc3ccncc3)C2)n1 (centres undefined)
A: 8.33

Q: Notebook: pull reported Percent Effect for Proteasome subunit beta (Trypanosoma cruzi) (UniProt O96673), entry Cc1cc(C(=O)N2CCC(c3nccn3CCCN(C)C)CC2)no1
A: 20.8

Q: Notebook: pull reported Percent Effect for Proteasome subunit beta (Trypanosoma cruzi) (UniProt O96673), entry CCC1CCCCCN1C(=O)c1nnc2ccccc2c1N (centres undefined)
A: 9.11

Q: Notebook: pull reported Percent Effect for Proteasome subunit beta (Trypanosoma cruzi) (UniProt O96673), entry COCCN1C(=O)CCC12CCN(C(=O)NC(C)C)CC2
A: -2.66

Q: Notebook: pull reported Percent Effect for Proteasome subunit beta (Trypanosoma cruzi) (UniProt O96673), entry Cc1cc(C2CCCN2C(=O)c2cc3c(s2)CCC3)on1 (centres undefined)
A: 14.4

Q: Notebook: pull reported Percent Effect for Proteasome subunit beta (Trypanosoma cruzi) (UniProt O96673), entry Cc1cc(C)n(CC2CCCN2CC(=O)N(C)C)n1 (centres undefined)
A: 9.19

Q: Notebook: pull reported Percent Effect for Proteasome subunit beta (Trypanosoma cruzi) (UniProt O96673), entry Cc1ccn(-c2ccccc2NCc2ccccn2)n1
A: 0.532

Q: Notebook: pull reported Percent Effect for Proteasome subunit beta (Trypanosoma cruzi) (UniProt O96673), entry COc1ccc(CN2C[C@@H]3OCCN(CC4CCCO4)[C@@H]3C2)cc1 (some centres undefined)
A: 17.3

Q: Notebook: pull reported Percent Effect for Proteasome subunit beta (Trypanosoma cruzi) (UniProt O96673), entry CCO[C@@H]1CO[C@@]2(CCCN(S(=O)(=O)c3cccnc3)C2)C1
A: 18.3

Q: Notebook: pull reported Percent Effect for Proteasome subunit beta (Trypanosoma cruzi) (UniProt O96673), entry Cc1ccc(OCC(=O)NS(=O)(=O)c2c(C)noc2C)cc1C
A: 0.0853

Q: Notebook: pull reported Percent Effect for Proteasome subunit beta (Trypanosoma cruzi) (UniProt O96673), entry CS(=O)(=O)NCc1ncn2c1CN(C(=O)CC1CCCC1)CCC2
A: 2.91

Q: Notebook: pull reported Percent Effect for Proteasome subunit beta (Trypanosoma cruzi) (UniProt O96673), entry Cc1ccccc1CNC(=O)CN1CCN(Cc2nccn2C)CC1
A: 18.4

Q: Notebook: pull reported Percent Effect for Proteasome subunit beta (Trypanosoma cruzi) (UniProt O96673), entry CN(C)C(=O)N1CCN(Cc2nnc(C(C)(C)C)o2)CC1
A: 1.55

Q: Notebook: pull reported Percent Effect for Proteasome subunit beta (Trypanosoma cruzi) (UniProt O96673), entry Cn1ncc(NCc2cccc(COC(C)(C)C)c2)c(Cl)c1=O
A: 3.31

Q: Notebook: pull reported Percent Effect for Proteasome subunit beta (Trypanosoma cruzi) (UniProt O96673), entry CC(C)NC(=O)C1CN(C(=O)Nc2ccccc2)CC12CCOCC2 (centres undefined)
A: 22.9

Q: Notebook: pull reported Percent Effect for Proteasome subunit beta (Trypanosoma cruzi) (UniProt O96673), entry Cc1ccc(Cn2ccc(NS(C)(=O)=O)n2)cc1
A: 9.32
